Please provide measured TGI for the entries that follow.
- System: T-47D breast
- test.protocol: NCI tumour cell line growth inhibition, 48 h
Answers are plain numbers, in µM.

Reference set (2 entries):
compound | TGI / µM
C/C(=N\NC(=S)N1CCCCC1)c1nc2ncccc2[nH]1 | 42.4
CCN(CC)c1ccc2c(c1)OC(N)=C(C#N)C2c1cc(OC)c2c(c1)OCO2 (stereo not drawn) | 22

### Prompt TGI lookup needed for "CCCn1c2ccccc2c2ccc3c(c21)C(=O)C=CC3=O" , thanks.
### Response 5.44

====

For each record, write down the corresponding TGI.
- System: A498 renal
- test.protocol: NCI tumour cell line growth inhibition, 48 h

Worked cases, TGI given:
molecule | target | readout.type | result
CN1CCN(CCOc2ccc(-c3cnc4c(-c5ccccc5F)cnn4c3)cc2)CC1 | A498 renal | TGI | 2.9 µM
CC(C)(Br)C(Br)CCC1(C2CO2)CO1 (stereo unspecified) | A498 renal | TGI | > 5 µM
CC(C)=CC/C=C(/C)[C@H]1CC[C@]2(C)[C@@H]1CC[C@@H]1[C@@]3(C)CCCNC(C)(C)[C@@H]3CC[C@]12C | A498 renal | TGI | 29.3 µM
COC(=O)C1=C(C)NC2=C(C(=O)c3ccccc32)C1c1cn(-c2ccccc2)nc1-c1ccccc1 (stereo unspecified) | A498 renal | TGI | > 100 µM
S=C1NC2(CCCCCC2)NN1c1ccccc1 | A498 renal | TGI | > 100 µM

Next:
### Prompt Can you look up the measured TGI of "COc1ccccc1/C(=N\OCCC(=O)O)c1cccs1" for me?
### Response > 100 µM

====

- Test system: SR leukemia
- test.protocol: NCI tumour cell line growth inhibition, 48 h
So I've got a bunch of compounds here, and I need their TGI values.

compound | TGI
Nc1c2c(nc3cc(F)c(F)cc13)CCC2 | > 100 µM
O=C1NC(=O)C(c2cnc3ccccn23)=C1c1cn2c3c(cc(F)cc13)CN(C(=O)N1CCCCC1)CC2 | 29.1 µM

Give TGI for each listed item.
1. CC(C)=CCNc1ncnc2c1ncn2C1OC(CO)C(O)C1O (configuration not stated)
2. O=C1NC(NNc2ccccc2)=N/C1=C\c1ccccc1O
3. S=C1NC2(CCCCCC2)NN1c1ccccc1
4. CCn1c(-c2nonc2N)nc2c(C#CC(C)(C)O)nc(OC[C@H](N)c3ccccc3)cc21
5. CC1(C)CC(=O)c2[nH]c3ccccc3c2CC(=O)NCCc2cn1cn2

### Response
> 334 µM
> 100 µM
> 100 µM
16.3 µM
> 100 µM

Batch lookup, TGI per entry.
1. CCCCC1=NNC(=O)C1
2. Cc1c([N+](=O)[O-])ccc2c(NCCCN(C)C)ccnc12
3. CC1(C)COC(c2cccnc2/C=N/O)=N1
4. C=C(CNCc1ccccc1)c1ccc(C(=O)Nc2ccccc2N)cc1

### Response
["> 100 µM", "> 100 µM", "> 100 µM", "> 100 µM"]

====

- System: HCT-15 colon
- test.protocol: NCI tumour cell line growth inhibition, 48 h
readout.type: TGI

Use the examples below as a reference point.
query.smiles | TGI
COc1ccc2c3c([nH]c2c1[N+](=O)[O-])C(C)=NCC3 | > 100 µM
NS(=O)(=O)c1ccc(N=Nc2nc3[nH]c(=O)[nH]c(=O)c3[nH]2)cc1 | > 100 µM

Shifting focus to the compound that follows.
### Prompt Need TGI of "CC(C)(C)OC(=O)N1CCc2[nH][nH]c(=O)c2C1" , thanks.
### Response > 100 µM
